molecular target: Kallikrein-7 (Homo sapiens); experiment: activation of human kallikrein-7 proenzyme – biochemical, fluorescence intensity, primary screen (AID 652039); details: purified proKLK7, EDANS-DABCYL substrate fluorescence; at 7 µM; active compounds read high; 100% is mature enzyme control, 0% vehicle
Out of some 370,000 compounds screened, about 3,300 (0.89%) were called active. This is one part of a sample in which actives are shown more often than they occur.
Recorded activation, one value per entry.

{"columns": ["compound", "targetDesc", "activation / %"],
 "data": [
  ["CN(C)Cc1c(O)ccc2occ(C(O)c3ccccc3)c12 (centres undefined)", "Kallikrein-7 (Homo sapiens)", -0.59],
  ["CCc1cc(=O)oc2cc(C)cc(OCC(=O)N3CCC[C@@H]3C(=O)O)c12", "Kallikrein-7 (Homo sapiens)", 2.84],
  ["CCCCC(=O)Nc1ccc(C(=O)NCCCn2ccnc2)cc1", "Kallikrein-7 (Homo sapiens)", 0],
  ["CC(C)(C)C(=O)Nc1ccc(-c2cn3cccnc3n2)cc1", "Kallikrein-7 (Homo sapiens)", 65.9],
  ["CCCCCC(=O)Nc1ccc(S(=O)(=O)Nc2ccc(Cl)nn2)cc1", "Kallikrein-7 (Homo sapiens)", -0.08],
  ["Cc1nn2c(=O)cc(COC(=O)c3ccc(NC(=O)C(C)(C)C)cc3)nc2s1", "Kallikrein-7 (Homo sapiens)", -0.47],
  ["CCc1cc(=O)oc2cc(C)cc(OC(C)C(=O)O)c12 (centres undefined)", "Kallikrein-7 (Homo sapiens)", 3.59],
  ["Cc1ccc(-c2nn(-c3ccccc3)cc2/C=C/C(=O)Nc2cccc(S(N)(=O)=O)c2)cc1", "Kallikrein-7 (Homo sapiens)", 302],
  ["COc1cccc(CNC(=O)C2CCCN(c3nc4ccccc4o3)C2)c1OC (centres undefined)", "Kallikrein-7 (Homo sapiens)", 0.61],
  ["Cc1ccccc1C(=O)O", "Kallikrein-7 (Homo sapiens)", -0.39],
  ["Cc1ccc(C(=O)c2coc3ccc(O)c(CN(C)C)c23)cc1", "Kallikrein-7 (Homo sapiens)", 0.08],
  ["Cc1cccc(C(=O)Nc2c(-c3ccc(F)cc3)nc3ncccn23)c1", "Kallikrein-7 (Homo sapiens)", 8.91],
  ["COc1ccc2c(C(C)c3ccc(N)cc3)cn(C)c2c1 (centres undefined)", "Kallikrein-7 (Homo sapiens)", -0.2],
  ["CC(=O)Nc1ccc(-c2cn3cccnc3n2)cc1", "Kallikrein-7 (Homo sapiens)", 64.7],
  ["Cc1ccc(-n2c(SCC(=O)Nc3ccc(S(=O)(=O)Nc4nccs4)cc3)nnc2-c2ccccn2)cc1", "Kallikrein-7 (Homo sapiens)", 0.68],
  ["COc1ccc(-n2c(COc3ccccc3)nnc2SCC(=O)Nc2ccc3c(c2)OCO3)cc1", "Kallikrein-7 (Homo sapiens)", 0.59],
  ["COCCCNC(=O)C[C@H]1C[C@@]2(C(=O)OC)C(=C[C@H](C(C)(C)C)O[C@@H]2C)N(Cc2ccc(Cl)cc2Cl)C1=O", "Kallikrein-7 (Homo sapiens)", -0.25],
  ["COC(=O)c1ccc(C2C3=C(Nc4nnnn42)c2ccccc2OC3)cc1 (centres undefined)", "Kallikrein-7 (Homo sapiens)", 30.4],
  ["CC(C)[C@H](NC(=O)Nc1ccc(S(N)(=O)=O)cc1)C(=O)O", "Kallikrein-7 (Homo sapiens)", -0.23],
  ["COC(=O)C1CN(CC(C)C)CCS(=O)(=O)N1Cc1ccc(C)cc1 (centres undefined)", "Kallikrein-7 (Homo sapiens)", -0.1],
  ["Cc1cccc(C)c1NC(=O)C(c1cccc(F)c1)N1CCN(C)CC1 (centres undefined)", "Kallikrein-7 (Homo sapiens)", -0.04],
  ["COc1ccccc1NC(=O)C1=C(C)Nc2nnnn2C1c1cccc(Br)c1 (centres undefined)", "Kallikrein-7 (Homo sapiens)", 0.58],
  ["Cc1cc(=O)oc2c1ccc1ccccc12", "Kallikrein-7 (Homo sapiens)", -3.76],
  ["Cc1ccc(NC(=O)c2cc(C)nn2-c2ccccc2)c(C)c1", "Kallikrein-7 (Homo sapiens)", 0.15]
]}
